target: RBPJ (53–474) K275M (Mus musculus, UniProt P31266 53-474, K275M); test: ITC
Sequence (P31266 53-474 K275M): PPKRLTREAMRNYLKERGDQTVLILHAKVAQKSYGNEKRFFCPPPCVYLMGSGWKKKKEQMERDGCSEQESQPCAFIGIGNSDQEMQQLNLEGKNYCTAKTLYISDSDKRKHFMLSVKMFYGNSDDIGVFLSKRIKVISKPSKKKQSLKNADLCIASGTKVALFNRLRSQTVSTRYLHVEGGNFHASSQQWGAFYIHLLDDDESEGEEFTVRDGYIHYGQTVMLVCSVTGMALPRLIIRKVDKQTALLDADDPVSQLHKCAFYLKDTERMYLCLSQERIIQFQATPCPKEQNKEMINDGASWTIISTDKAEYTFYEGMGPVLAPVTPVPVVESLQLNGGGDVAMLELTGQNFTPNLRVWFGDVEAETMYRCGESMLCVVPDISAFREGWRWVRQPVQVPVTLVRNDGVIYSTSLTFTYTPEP
ENDPOINT_LABEL: pKd
Reminder that pKd is minus the log10 of a molar concentration.

# input binder: MENVKKATATTTWMVPTAQ (peptide, UniProt Q96JM7-2 52-70, looked up) [L3MBTL3 (52–70) wild-type peptide (19-mer)] ; wanted: its pKd
5.38
